Cited source: patent US10159685B2

test system: bovine vascular smooth muscle cells (bVSMCs); assay type: cell-based; settings: 10 uM, 7 days, MTT, mean of three experiments
Marks after values point to notes of the source that are not given here.
Recorded Cell viability of bVSMCs after seven days (MTT signal, relative to control), one value per entry.

// worked examples, Cell viability of bVSMCs after seven days (MTT signal, relative to control) included
molecule | target desc | test result
O=C1CCc2cc(OCCCCc3nnnn3C3CCCCC3)ccc2N1 [cilostazol] | bovine vascular smooth muscle cells (bVSMCs) | 88.38*
CC(=O)CCCCn1c(=O)c2c(ncn2C)n(C)c1=O [Pentoxifylline, pentoxifylline] | bovine vascular smooth muscle cells (bVSMCs) | 91.77*
O=C1NCCc2c(OCCCCN3CCCCC3)cccc21 [DPQ] | bovine vascular smooth muscle cells (bVSMCs) | 92.58*

The record that follows has no Cell viability of bVSMCs after seven days (MTT signal, relative to control) shown yet.
Field Cell viability of bVSMCs after seven days (MTT signal, relative to control) (bovine vascular smooth muscle cells (bVSMCs)), entry COc1ccccc1Oc1c(NS(=O)(=O)c2ccc(C(C)(C)C)cc2)nc(-c2ncccn2)nc1OCCO [bosentan MH, Bosentan monohydrate] : 93.87*
